Values compiled from the array DNA melting data of Ke et al..

Assay: melting temperature; melt of duplexes
Settings: sodium 0.0675 M; strand 1 µM
Recorded measurements of Tm, one per entry
Value and unit, in that order.

| substance | Tm |
| --- | --- |
| CGACGTGCGCCATGTGCTG+CAGCACATGACGCACGTCG (((((((((.(((((((((+))))))))).))))))))) | 59.3 °C |
| CGACGTGCCAGATGTGCTG+CAGCACATTTGGCACGTCG ((((((((((.((((((((+)))))))).)))))))))) | 59.3 °C |

Given CGACGTGCTAGATGTGCTG+CAGCACATATAGCACGTCG ((((((((((.((((((((+)))))))).)))))))))) , state its recorded Tm.
57.6 °C

Given CGACGTGCGGCATGTGCTG+CAGCACATAGAGCACGTCG ((((((((...((((((((+))))))))...)))))))) , state its recorded Tm.
56.4 °C
